System: PBMC from normal individuals
Procedure summary: In vitro T cell proliferative responses of human PBMC ([3H]thymidine incorporation)
Type: cell-based
Condition details: 3rd Stimulation, donor X349
Experimental endpoint: X349 (Δmax cpm)
One number for each entry, in cpm.

query: For the molecule `CC(C)C[C@H](NC(=O)[C@@H](NC(=O)[C@H](Cc1c[nH]c2ccccc12)NC(=O)[C@H](C)NC(=O)[C@H](C)NC(=O)[C@@H](NC(=O)[C@H](CC1CCCCC1)NC(=O)[C@H](CCCCN)NC(=O)[C@@H](C)N)C(C)C)[C@@H](C)O)C(=O)N[C@@H](CCCCN)C(=O)N[C@@H](C)C(=O)N[C@@H](C)C(=O)N[C@H](C)C(N)=O` , report X349 (Δmax cpm).
result: 38931

* * *

Tested on: PBMC from normal individuals
Procedure summary: In vitro T cell proliferative responses of human PBMC ([3H]thymidine incorporation)
Assay type: cell-based
Condition details: 3rd Stimulation, donor X349
Experimental endpoint: X349 (Δmax cpm)
Give bare numbers, in cpm.

Example entries and their recorded answers appear below.
Compound	Experimental endpoint	Units symbol	Experimental result
CC(C)C[C@H](NC(=O)[C@@H](NC(=O)[C@H](C)NC(=O)[C@H](C)NC(=O)[C@H](C)NC(=O)[C@@H](NC(=O)[C@H](CC1CCCCC1)NC(=O)[C@H](CCCCN)NC(=O)[C@@H](C)N)C(C)C)[C@@H](C)O)C(=O)N[C@@H](CCCCN)C(=O)N[C@@H](C)C(=O)N[C@@H](C)C(=O)N[C@H](C)C(N)=O [965.16]	X349 (Δmax cpm)	cpm	9316
CC(C)C[C@H](NC(=O)[C@@H](NC(=O)[C@H](CC(N)=O)NC(=O)[C@H](C)NC(=O)[C@H](C)NC(=O)[C@@H](NC(=O)[C@H](CC1CCCCC1)NC(=O)[C@H](CCCCN)NC(=O)[C@@H](C)N)C(C)C)[C@@H](C)O)C(=O)N[C@@H](CCCCN)C(=O)N[C@@H](C)C(=O)N[C@@H](C)C(=O)N[C@H](C)C(N)=O [965.08]	X349 (Δmax cpm)	cpm	31639

query: For the compound CC(C)C[C@H](NC(=O)[C@@H](NC(=O)[C@H](CCCCN)NC(=O)[C@H](C)NC(=O)[C@H](C)NC(=O)[C@@H](NC(=O)[C@H](CC1CCCCC1)NC(=O)[C@H](CCCCN)NC(=O)[C@@H](C)N)C(C)C)[C@@H](C)O)C(=O)N[C@@H](CCCCN)C(=O)N[C@@H](C)C(=O)N[C@@H](C)C(=O)N[C@H](C)C(N)=O [965.14] , report X349 (Δmax cpm).
result: 17849

* * *

Tested on: DR3
Parameters: species or system human
Condition details: read-out: Binding Activity DR3, IC50
Experimental endpoint: IC50 (nM)
Give bare numbers, in nM.

Example entries and their recorded answers appear below.
Compound	Subject of test	Experimental endpoint	Experimental result
CC(C)C[C@H](NC(=O)[C@@H](NC(=O)[C@H](CCCCN)NC(=O)[C@H](C)NC(=O)[C@H](C)NC(=O)[C@@H](NC(=O)[C@H](CC1CCCCC1)NC(=O)[C@H](CCCCN)NC(=O)[C@@H](C)N)C(C)C)[C@@H](C)O)C(=O)N[C@@H](CCCCN)C(=O)N[C@@H](C)C(=O)N[C@@H](C)C(=O)N[C@H](C)C(N)=O [965.14]	DR3	IC50	781
CC(C)C[C@H](NC(=O)[C@@H](NC(=O)[C@H](Cc1c[nH]cn1)NC(=O)[C@H](C)NC(=O)[C@H](C)NC(=O)[C@@H](NC(=O)[C@H](CC1CCCCC1)NC(=O)[C@H](CCCCN)NC(=O)[C@@H](C)N)C(C)C)[C@@H](C)O)C(=O)N[C@@H](CCCCN)C(=O)N[C@@H](C)C(=O)N[C@@H](C)C(=O)N[C@H](C)C(N)=O [965.15]	DR3	IC50	1390
CC(C)C[C@H](NC(=O)[C@@H](NC(=O)[C@H](CC(N)=O)NC(=O)[C@H](C)NC(=O)[C@H](C)NC(=O)[C@@H](NC(=O)[C@H](CC1CCCCC1)NC(=O)[C@H](CCCCN)NC(=O)[C@@H](C)N)C(C)C)[C@@H](C)O)C(=O)N[C@@H](CCCCN)C(=O)N[C@@H](C)C(=O)N[C@@H](C)C(=O)N[C@H](C)C(N)=O [965.08]	DR3	IC50	250

Let's switch to this compound now.
query: Using DR3 as the test system, report measured IC50 of CC(C)C[C@H](NC(=O)[C@@H](NC(=O)[C@H](Cc1ccc(O)cc1)NC(=O)[C@H](C)NC(=O)[C@H](C)NC(=O)[C@@H](NC(=O)[C@H](CC1CCCCC1)NC(=O)[C@H](CCCCN)NC(=O)[C@@H](C)N)C(C)C)[C@@H](C)O)C(=O)N[C@@H](CCCCN)C(=O)N[C@@H](C)C(=O)N[C@@H](C)C(=O)N[C@H](C)C(N)=O [965.09] .
result: 250

Source listed as patent US20050049197A1.
